System: rodent lifetime carcinogenesis bioassay, tumor incidence TD50
Assay: carcinogenic potency in animals, long-term in vivo studies, CPDB compilation (AID 1745844)
Conditions: rat; strain Sprague-Dawley; females; in drinking water; site: any site (literature study); lesion: malignant tumor; dosed 104 weeks; study length 120 weeks
measurement-name: TD50 (mg/kg/day)
Answers are plain numbers, in mg/kg/day.

Note TD50 for the compound shown: `CCO`
61000

----------
Test system: rodent lifetime carcinogenesis bioassay, tumor incidence TD50
Experiment: carcinogenic potency in animals, long-term in vivo studies, CPDB compilation (AID 1745844)
Conditions: mouse; strain C3HeB/Fe; both sexes; in feed; site: liver; lesion: hepatocellular adenoma; dosed 104 weeks; study length 104 weeks
Provide the reported TD50 of each item.

> print(dat)
                         chemical.structure  measurement.name  observed.value
1  ClC1=C(Cl)[C@]2(Cl)[C@H]3[C@H]([C@@H]4C=C[C@H]3C4)[C@@]1(Cl)C2(Cl)Cl              TD50  4.41 mg/kg/day

Note TD50 for the molecule shown: `ClC1=C(Cl)[C@]2(Cl)[C@@H]3[C@@H]4C[C@@H]([C@H]5O[C@@H]45)[C@@H]3[C@@]1(Cl)C2(Cl)Cl`
4.09 mg/kg/day

----------
Tested on: rodent lifetime carcinogenesis bioassay, tumor incidence TD50
Test: carcinogenic potency in animals, long-term in vivo studies, CPDB compilation (AID 1745844)
Details: mouse; strain B6C3F1; females; in feed; site: liver; lesion: hepatocellular adenoma + hepatocellular carcinoma + neoplastic nodule; dosed 80 weeks; study length 90 weeks
Provide the reported TD50 of each item.
One number for each entry, in mg/kg/day.

Observe how each entry below is paired with its result.
> print(dat)
                                   compound  observed.value
1  O=C1C2(Cl)C3(Cl)C4(Cl)C(Cl)(Cl)C5(Cl)C3(Cl)C1(Cl)C5(Cl)C24Cl (stereo not drawn)            1.62
2  ClC1=C(Cl)C2(Cl)C3C(Cl)C(Cl)CC3C1(Cl)C2(Cl)Cl (stereo not drawn)            4.89

Note TD50 for the compound shown: `Nc1c(Cl)c(Cl)nc(C(=O)O)c1Cl`
20100

----------
System: rodent lifetime carcinogenesis bioassay, tumor incidence TD50
Assay: carcinogenic potency in animals, long-term in vivo studies, CPDB compilation (AID 1745844)
Conditions: mouse; strain Swiss; females; in feed; site: lung; lesion: alveolar-cell adenoma; dosed 33 weeks; study length 52 weeks
measurement-name: TD50 (mg/kg/day)
Numbers only, in mg/kg/day.

Note TD50 for the compound shown: `O=CNc1nc(-c2ccc([N+](=O)[O-])o2)cs1`
208

----------
System: rodent lifetime carcinogenesis bioassay, tumor incidence TD50
Assay: carcinogenic potency in animals, long-term in vivo studies, CPDB compilation (AID 1745844)
Conditions: mouse; strain Charles River CD1; males; in feed; site: interscapulum; lesion: angiosarcoma; dosed 56 weeks; study length 69 weeks
measurement-name: TD50

Note TD50 for the compound shown: C=CC(O)c1ccc2c(c1)OCO2 (stereo unspecified)
429 mg/kg/day

----------
Test system: rodent lifetime carcinogenesis bioassay, tumor incidence TD50
Test: carcinogenic potency in animals, long-term in vivo studies, CPDB compilation (AID 1745844)
Settings: rat; strain Fischer 344; males; in feed; site: liver; lesion: hepatocellular adenoma; dosed 37 weeks; study length 104 weeks
measurement-name: TD50 (mg/kg/day)
Give bare numbers, in mg/kg/day.

Note TD50 for the compound shown: `Cc1cccc(Nc2cc(Cl)nc(SCC(=O)O)n2)c1C`
190

----------
Tested on: rodent lifetime carcinogenesis bioassay, tumor incidence TD50
Test: carcinogenic potency in animals, long-term in vivo studies, CPDB compilation (AID 1745844)
Settings: rat; strain Fischer 344; females; by gavage; site: kidney; lesion: tubular-cell adenoma + tubular-cell adenocarcinoma; dosed 102 weeks; study length 104 weeks
measurement-name: TD50

Note TD50 for the compound shown: `ClC(Cl)Br`
143 mg/kg/day

----------
Test system: rodent lifetime carcinogenesis bioassay, tumor incidence TD50
Assay: carcinogenic potency in animals, long-term in vivo studies, CPDB compilation (AID 1745844)
Details: mouse; strain B6C3F1; males; by gavage; site: subcutaneous tissue; lesion: fibrosarcoma + sarcoma; dosed 103 weeks; study length 106 weeks
Active and inactive are the calls of the source. The rule behind the calls is not given here.
measurement-name: TD50

Name the recorded TD50 of `BrC(Br)Br` , assay system rodent lifetime carcinogenesis bioassay, tumor incidence TD50.
81.9 mg/kg/day (inactive)

----------
Test system: rodent lifetime carcinogenesis bioassay, tumor incidence TD50
Test: carcinogenic potency in animals, long-term in vivo studies, CPDB compilation (AID 1745844)
Conditions: rat; strain Fischer 344; males; by gavage; site: liver; lesion: hepatocellular carcinoma; dosed 50 weeks; study length 83 weeks
measurement-name: TD50

Observe how each entry below is paired with its result.
> print(dat)
              compound                          target.or.system  measurement.name  observed.value
1  CCC(CC)[N+](=O)[O-]  rodent lifetime carcinogenesis bioassay, tumor incidence TD50              TD50  3.05 mg/kg/day
2           ON=C1CCCC1  rodent lifetime carcinogenesis bioassay, tumor incidence TD50              TD50  70.7 mg/kg/day

Note TD50 for the compound shown: CCC(C)[N+](=O)[O-] (stereo not drawn)
2.86 mg/kg/day

----------
System: rodent lifetime carcinogenesis bioassay, tumor incidence TD50
Experiment: carcinogenic potency in animals, long-term in vivo studies, CPDB compilation (AID 1745844)
Details: mouse; strain Swiss Webster; females; inhaled; site: lung; lesion: adenoma; dosed 78 weeks; study length 83 weeks
Activity calls are given as the source filed them. How the calls were made is not given here.
measurement-name: TD50

Note TD50 for the compound shown: `[N-]=[N+]=O`
309000 mg/kg/day (inactive)

----------
Tested on: rodent lifetime carcinogenesis bioassay, tumor incidence TD50
Assay: carcinogenic potency in animals, long-term in vivo studies, CPDB compilation (AID 1745844)
Settings: hamster; strain Syrian Golden; females; in drinking water; site: liver; lesion: histiocytoma, malignant; dosed 86 weeks; study length 86 weeks
measurement-name: TD50

Note TD50 for the compound shown: `CNN`
15.4 mg/kg/day

----------
System: rodent lifetime carcinogenesis bioassay, tumor incidence TD50
Experiment: carcinogenic potency in animals, long-term in vivo studies, CPDB compilation (AID 1745844)
Settings: rat; strain Osborne-Mendel; females; in feed; site: adrenal gland; lesion: cortical adenoma + cortical carcinoma; dosed 80 weeks; study length 109 weeks
Activity calls are given as the source filed them. The rule behind the calls is not given here.
Respond using exactly one of the listed classes: active, inactive

> print(dat)
                               compound  label.value
1  CCOP(=S)(OCC)Oc1ccc([N+](=O)[O-])cc1       active

Turning now to a further record.
Could you please tell me the result logged for O=C1C2CC=CCC2C(=O)N1SC(Cl)(Cl)Cl (configuration not stated) in this assay?
inactive

----------
System: rodent lifetime carcinogenesis bioassay, tumor incidence TD50
Assay: carcinogenic potency in animals, long-term in vivo studies, CPDB compilation (AID 1745844)
Conditions: rat; strain Fischer 344; males; by gavage; site: liver + multiple organs; lesion: cholangiocarcinoma + hepatocellular adenoma + hepatocellular carcinoma + mononuclear-cell leukemia; dosed 103 weeks; study length 104 weeks
measurement-name: TD50 (mg/kg/day)
Numbers only, in mg/kg/day.

Note TD50 for the compound shown: `c1ccoc1`
0.529

----------
Tested on: rodent lifetime carcinogenesis bioassay, tumor incidence TD50
Test: carcinogenic potency in animals, long-term in vivo studies, CPDB compilation (AID 1745844)
Details: rat; strain Sprague-Dawley; males; by gavage; site: any site (literature study); lesion: malignant tumor; dosed 52 weeks; study length 104 weeks
Active and inactive are the calls of the source. The rule behind the calls is not given here.
measurement-name: TD50

> print(dat)
                chemical.structure                          target.or.system  measurement.name             observed.value
1  Cc1[nH]cnc1CSCCN=C(NC#N)N(C)N=O  rodent lifetime carcinogenesis bioassay, tumor incidence TD50              TD50  4820 mg/kg/day (inactive)

Note TD50 for the compound shown: `C=Cc1ccccc1`
1090 mg/kg/day

----------
System: rodent lifetime carcinogenesis bioassay, tumor incidence TD50
Assay: carcinogenic potency in animals, long-term in vivo studies, CPDB compilation (AID 1745844)
Details: rat; strain Fischer 344; females; by gavage; site: tongue; lesion: squamous-cell papilloma; dosed 91 weeks; study length 105 weeks
measurement-name: TD50 (mg/kg/day)
Numbers only, in mg/kg/day.

Note TD50 for the molecule shown: `ClCC(Cl)CCl`
9.61

----------
Test system: rodent lifetime carcinogenesis bioassay, tumor incidence TD50
Test: carcinogenic potency in animals, long-term in vivo studies, CPDB compilation (AID 1745844)
Conditions: mouse; strain Swiss; females; i.p.; site: uterus; lesion: adenocarcinoma; dosed 26 weeks; study length 61 weeks
measurement-name: TD50

Note TD50 for the compound shown: `CN(C)N=Nc1nc[nH]c1C(N)=O`
3.2 mg/kg/day
